Measurement Conditions: 329.15 K; 101.33 kPa; Liquid; Vibrating tube method

Entry Smiles: CCCC[n+]1ccn(C2CCCC2)c1.O=S(=O)([N-]S(=O)(=O)C(F)(F)F)C(F)(F)F
mass density, kg/m3: 1346.7

Entry Smiles: CCCCC[n+]1ccn(CCCC)c1.O=S(=O)([N-]S(=O)(=O)C(F)(F)F)C(F)(F)F
mass density, kg/m3: 1290

Entry Smiles: CCCCn1cc[n+](C(CC)CC)c1.O=S(=O)([N-]S(=O)(=O)C(F)(F)F)C(F)(F)F
mass density, kg/m3: 1292.2

Entry Smiles: CCCCn1cc[n+](CCC(C)C)c1.O=S(=O)([N-]S(=O)(=O)C(F)(F)F)C(F)(F)F
mass density, kg/m3: 1290.8
